List of pKi values.
# Test System: T1, subtilisin BPN' (Bacillus amyloliquefaciens)
# T1 chain: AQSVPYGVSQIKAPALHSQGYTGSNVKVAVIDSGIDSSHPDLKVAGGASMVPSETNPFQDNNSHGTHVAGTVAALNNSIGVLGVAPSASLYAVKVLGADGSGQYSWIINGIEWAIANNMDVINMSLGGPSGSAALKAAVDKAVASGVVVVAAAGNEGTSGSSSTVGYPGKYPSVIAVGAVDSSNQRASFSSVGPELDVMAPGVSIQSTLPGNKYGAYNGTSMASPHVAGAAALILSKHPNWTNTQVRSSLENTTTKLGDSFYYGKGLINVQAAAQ
# Experiment: competitive inhibition of enzyme activity
pKi is a log-scale quantity: -log10 of the concentration expressed in molar.

Completed entries (count: 2):
{"Binder": "pro-77-mer (from -1 to -77) for subtilisin BPN' (peptide) peptide: AGKSNGEKKYIVGFKQTMSTMSAAKKKDVISEKGGKVQKQFKYVDAASATLNEKAVKELKKDPSVAYVEEDHVAHAY", "pKi": 6.42}
{"Binder": "pro-68-mer (from -1 to -68) for subtilisin BPN' (peptide) peptide: YIVGFKQTMSTMSAAKKKDVISEKGGKVQKQFKYVDAASATLNEKAVKELKKDPSVAYVEEDHVAHAY", "pKi": 6.12}

pKi for pro-63-mer (from -1 to -63) for subtilisin BPN' (peptide) peptide: KQTMSTMSAAKKKDVISEKGGKVQKQFKYVDAASATLNEKAVKELKKDPSVAYVEEDHVAHAY ?
6.10
